assayedSystem: 5-hydroxytryptamine receptor 1D (Homo sapiens)
Sequence (P28221 whole entry): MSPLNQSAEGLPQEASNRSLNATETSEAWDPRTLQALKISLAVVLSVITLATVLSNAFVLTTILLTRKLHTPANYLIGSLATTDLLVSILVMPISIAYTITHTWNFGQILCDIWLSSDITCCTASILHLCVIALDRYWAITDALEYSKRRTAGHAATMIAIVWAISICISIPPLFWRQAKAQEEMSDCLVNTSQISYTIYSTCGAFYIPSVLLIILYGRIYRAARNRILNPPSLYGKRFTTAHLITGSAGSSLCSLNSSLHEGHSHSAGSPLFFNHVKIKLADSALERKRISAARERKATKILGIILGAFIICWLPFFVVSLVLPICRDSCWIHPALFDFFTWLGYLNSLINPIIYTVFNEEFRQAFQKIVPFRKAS
assaySummary: Agonist-induced [35S]- GTPgammaS binding in CHO cells stably transfected with 5-hydroxytryptamine 1D receptor
pEC50: −log10 of the molar value.
readoutKind: pEC50

# compound, assayedSystem, pEC50
data = [
    ("OC[C@@H](Cc1ccccc1)NC1CCN(CCCc2c[nH]c3ccc(-n4cnnc4)cc23)CC1", "5-hydroxytryptamine receptor 1D (Homo sapiens)", 7.85),
    ("OC[C@@H](NC1CCN(CCCc2c[nH]c3ccc(-n4cnnc4)cc23)CC1)c1ccccc1", "5-hydroxytryptamine receptor 1D (Homo sapiens)", 8.59),
    ("CC(=O)Nc1ccc(CNC2CCN(CCCc3c[nH]c4ccc(-n5cnnc5)cc34)CC2)cc1", "5-hydroxytryptamine receptor 1D (Homo sapiens)", 8.30),
    ("C[C@@H](NC1CCN(CCCc2c[nH]c3ccc(-n4ccnc4)cc23)CC1)c1ccccc1", "5-hydroxytryptamine receptor 1D (Homo sapiens)", 8.21),
    ("c1ccc(CNC2CCN(CCCc3c[nH]c4ccc(-n5cnnc5)cc34)CC2)cc1", "5-hydroxytryptamine receptor 1D (Homo sapiens)", 8.12),
]

1: OC[C@H](NC1CCN(CCCc2c[nH]c3ccc(-n4cncn4)cc23)CC1)c1ccccc1
2: CN(Cc1cccs1)C1CCN(CCCc2c[nH]c3ccc(-n4cnnc4)cc23)CC1
3: CC(C)=CCN(C)C1CCN(CCCc2c[nH]c3ccc(-n4cnnc4)cc23)CC1
4: OC[C@H](NC1CCN(CCCc2c[nH]c3ccc(-n4cnnc4)cc23)CC1)c1ccc(F)cc1
5: CC(NC1CCN(CCCc2c[nH]c3ccc(-n4cnnc4)cc23)CC1)c1ccc(F)cc1 (stereo not given)
**Query** Kindly order the items shown according to pEC50, from the highest value down. Output the labels ranked as instructed.
**Result** 5, 4, 3, 2, 1
